Each item that follows carries a reported normalized growth.
- EXPERIMENT SUMMARY: chemical genetic growth profiling, strain panel (AID 1159580);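 also: tested at 20 µM; growth read once vehicle control cultures reached saturation at 30 °C; 1 = growth at the plate median or of vehicle wells; lower values mean less growth of the strain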
- STATED CONDITIONS: S. cerevisiae deletion strains, growth OD, locus YER155C, strain BEM2, active compounds read low
About 2,000 (36%) of roughly 5,500 compounds were called active. About 18% were inconclusive and are not listed. The list shows a part of the results.
READOUT: normalized growth

1. CC1=C2C(O)C(=O)OC3CC4C(C)(C)C(=O)C=C[C@]4(C)C(CC1)[C@]23C (some centres undefined)	1
2. COc1ccccc1N1CCN(CCCNc2cc(=O)n(C)c(=O)n2C)CC1	0.993
3. O=C(O)c1cc(O)ccc1O	0.996
4. CC(=O)Oc1ccccc1C(=O)Oc1ccccc1C(=O)O	0.986
5. COc1cc(O)c2c(=O)cc(-c3ccc(O)cc3)oc2c1	1.04
6. Nc1nc(/C(=C/CC(=O)O)C(=O)N[C@@H]2C(=O)N3C(C(=O)O)=CCS[C@H]23)cs1	1.04
7. Cc1c(OCC(F)(F)F)ccnc1CS(=O)c1nc2ccccc2[nH]1 (centres undefined)	0.988
8. CC(C)(C)NCC(O)COc1cccc2c1C[C@H](O)[C@H](O)C2 (some centres undefined)	0.999
9. C[C@@H]1CC[C@@]23CCC4(C)[C@@](C=CC5[C@@]6(C)CC[C@H](O)C(C)(C)C6CC[C@]54C)(OC2=O)C3[C@H]1C (some centres undefined)	1.03
10. NC[C@@H]1O[C@H](O[C@@H]2[C@@H](CO)OC(O[C@@H]3[C@@H](O)[C@H](N)C[C@H](N)[C@H]3O[C@H]3O[C@H](CO)[C@@H](O)[C@H](O)[C@H]3N)[C@@H]2O)[C@H](N)[C@@H](O)[C@@H]1O (some centres undefined)	1
11. O=C(Oc1ccccc1C(=O)O)c1ccccc1O	0.997
12. CC(=O)O[C@@H]1CC2C(C)(C)CCC[C@]2(C)C2CC[C@]3(C)C(=CC(=O)O[C@H]3c3ccoc3)[C@@]21C (some centres undefined)	1
13. COc1ccc(-c2cc(=O)c3c(O)c(OC)c(OC)cc3o2)cc1O	1.01
14. CC(C)Nc1nc(Cl)nc(NC(C)C)n1	1.01
15. Cc1ccc(C(C)C)c(O)c1C(=O)O	0.914
16. CC[C@@]1(O)C(=O)OCc2c1cc1n(c2=O)Cc2cc3ccccc3nc2-1	0.837
17. COC(=O)CC1C(C)(C)C(OC(C)=O)[C@@H]2[C@@H](OC(C)=O)[C@]34O[C@@]2(O)[C@]1(C)C3CC[C@]1(C)C4=CC(=O)O[C@H]1c1ccoc1 (some centres undefined)	1.01
18. COc1nc(NC(C)C)nc(NC(C)C)n1	1.01
19. NCC(O)CC(=O)O (centres undefined)	1.01
20. N#Cc1c(Cl)cccc1Cl	1.01
21. Cc1c(C(N)=O)cc([N+](=O)[O-])cc1[N+](=O)[O-]	0.987
22. CC(=O)O[C@@H]1CC2C(C)(CC[C@H](O)C2(C)C)C2CC[C@]3(C)C(=CC(=O)O[C@H]3c3ccoc3)C21C (some centres undefined)	0.993
23. CNC[C@H](O)c1cccc(O)c1	1
24. CC1(C)C(=O)CC[C@@]2(C)C1C[C@@H](O)[C@@]1(C)C3=CC(=O)O[C@@H](c4ccoc4)[C@]3(C)CCC21 (some centres undefined)	0.997
25. NC(N)=Nc1ccc(Cl)cc1	1.01
26. C[C@H]1[C@H](C)CC[C@]2(C(=O)O)CC[C@]3(C)C(=CCC4[C@@]5(C)C[C@@H](O)[C@H](O)[C@@](C)(CO)C5[C@H](O)C[C@]43C)[C@H]12 (some centres undefined)	0.985
27. CO[C@@H]1[C@@H](OC(N)=O)[C@@H](O)[C@H](Oc2ccc3c(O)c(NC(=O)c4ccc(O)c(CC=C(C)C)c4)c(=O)oc3c2C)OC1(C)C	1.04
28. O=C(CCCN1CCC(O)(c2ccc(Cl)cc2)CC1)c1ccc(F)cc1	1.01
29. COC(=O)[C@H]1[C@H]2C[C@H]3c4[nH]c5cc(OC)ccc5c4CCN3C[C@H]2C[C@@H](OC(=O)c2cc(OC)c(OC)c(OC)c2)[C@@H]1OC	1
